These entries and their values trace back to paper PMC10786891.

assay-system: T1, EsCas13d, nuclease-dead (Eubacterium siraeum, UniProt B0MS50, R295A;H300A;R849A;H854A)
T1 sequence: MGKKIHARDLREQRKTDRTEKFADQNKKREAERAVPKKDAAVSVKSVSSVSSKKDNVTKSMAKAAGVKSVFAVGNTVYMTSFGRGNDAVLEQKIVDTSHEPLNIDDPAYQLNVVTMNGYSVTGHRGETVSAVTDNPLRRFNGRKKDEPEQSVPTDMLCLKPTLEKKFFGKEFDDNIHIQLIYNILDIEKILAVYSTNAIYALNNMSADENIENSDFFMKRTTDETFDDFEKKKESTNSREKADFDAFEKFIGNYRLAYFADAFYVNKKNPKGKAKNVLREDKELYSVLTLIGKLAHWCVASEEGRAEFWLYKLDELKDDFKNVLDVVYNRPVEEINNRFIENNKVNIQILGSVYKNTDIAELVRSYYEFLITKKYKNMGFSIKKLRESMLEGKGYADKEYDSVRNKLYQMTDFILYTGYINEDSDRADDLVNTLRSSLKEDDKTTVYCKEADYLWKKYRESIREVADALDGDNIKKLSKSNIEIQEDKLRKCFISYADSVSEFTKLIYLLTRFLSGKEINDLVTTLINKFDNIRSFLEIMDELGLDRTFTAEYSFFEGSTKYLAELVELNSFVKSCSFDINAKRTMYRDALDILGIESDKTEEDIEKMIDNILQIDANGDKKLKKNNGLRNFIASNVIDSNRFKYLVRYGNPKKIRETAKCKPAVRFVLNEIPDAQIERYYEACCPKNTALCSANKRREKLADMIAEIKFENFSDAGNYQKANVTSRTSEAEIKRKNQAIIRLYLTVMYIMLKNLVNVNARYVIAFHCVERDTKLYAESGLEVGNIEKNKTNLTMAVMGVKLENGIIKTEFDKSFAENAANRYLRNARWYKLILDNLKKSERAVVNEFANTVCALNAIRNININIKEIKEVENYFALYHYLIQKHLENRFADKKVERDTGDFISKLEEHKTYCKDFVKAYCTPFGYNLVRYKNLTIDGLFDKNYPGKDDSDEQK
assay: crRNA (strand 1, pre-loaded); Mg2+; 40 mM Tris-HCl pH 7.5, 150 mM NaCl, 6 mM MgCl2, 1 mM DTT, 0.1% Tween-20, 0.2 mg/ml BSA; 25 C; 10 min per concentration, then washed
condition-summary: tags: His6-TwinStrep-SUMO cleaved; N-terminal SNAP kept (SNAP-Surface 488); label: 3' end held by stalled T7 RNA polymerase
endpoint: pKd
Scale: negative log10 of molar concentration, which is what pKd denotes.

Problem: Give its pKd value. Item: target 1 C7A,A14U (mixed) RNA 1: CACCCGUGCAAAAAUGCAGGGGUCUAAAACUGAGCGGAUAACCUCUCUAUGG RNA 2: GGGAAUGGAUCCACAUCUACGAAUUCGUACCAUAGAGUGGUUAUACGCUCACCGAGAUCGGAAGAGCACACGU
Result: 7.41

Problem: Try this binder next: target 2 MT 5'PFS GUC 3'PFS AUU (mixed) RNA 1: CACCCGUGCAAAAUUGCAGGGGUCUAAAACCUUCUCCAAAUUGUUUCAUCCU RNA 2: GGGAAUGGAUCCACAUCUACGAAUUCGUCAGGAUGAAACAAUUUGGAGAAGAUUAGAUCGGAAGAGCACACGU
Result: 7.95

Problem: Try this binder next: target 1 C4A,G15A (mixed) RNA 1: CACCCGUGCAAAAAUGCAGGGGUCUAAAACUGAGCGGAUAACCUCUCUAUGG RNA 2: GGGAAUGGAUCCACAUCUACGAAUUCGUACCAUAGAAAGGUUAUCCGAUCACCGAGAUCGGAAGAGCACACGU
Result: 7.68

Problem: Try this binder next: target 1 U8G,C21U (mixed) RNA 1: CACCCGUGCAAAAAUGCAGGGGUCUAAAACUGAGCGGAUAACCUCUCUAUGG RNA 2: GGGAAUGGAUCCACAUCUACGAAUUCGUACUAUAGAGAGGUUAGCCGCUCACCGAGAUCGGAAGAGCACACGU
Result: 8.08
